B1: Spectrin alpha chain, erythrocytic 1, residues 979 to 1036; numbered along this chain, P02549 (parent)
chain: EQRVMALYDFQARSPREVTMKKGDVLTLLSSINKDWWKVEAADHQGIVPAVYVRRLAH

Variants of: B1
test details: abundance fitness (aPCA) (normalised: wild type 0, dead -1); higher = more abundant; growth selection in yeast, the domain comes from the species named
settings: Homo sapiens
Assign yes (1) to entries whose abundance fitness meets or exceeds -0.6; assign no (0) to the rest.

Prompt: Assess whether reported abundance fitness for EQRVMALYDFQARSPREVTMKKGDVLTLLSSINKDWIKVEAADHQGIVPAVYVRRLAH [W37I] sits at -0.6 or higher.
Response: yes (1)

Prompt: hey, is abundance fitness for this one >= -0.6? EQRVMALYDFQARSPREVTMKKGDVLTLLSSINKDGWKVEAADHQGIVPAVYVRRLAH [W36G]
Response: no (0)

Prompt: State whether the measured abundance fitness reaches -0.6, counting equality as reaching it, for EQRVMALYDFQARSPREVTMKKGDVLTLLSSINKDWWKVEAADHQGIVPAVYVLRLAH [R54L]
Response: no (0)

Prompt: Quick check: does EQRVMALYDFQARSPREVWMKKGDVLTLLSSINKDWWKVEAADHQGIVPAVYVRRLAH [T19W] have abundance fitness greater than or equal to -0.6?
Response: no (0)

Prompt: Form field: abundance fitness at least -0.6? Entry: EQRVMALYDFQFRSPREVTMKKGDVLTLLSSINKDWWKVEAADHQGIVPAVYVRRLAH [A12F]
Response: no (0)

Prompt: Is reported abundance fitness greater than or equal to -0.6 here: EQRVMALYDFQARSPRGVTMKKGDVLTLLSSINKDWWKVEAADHQGIVPAVYVRRLAH [E17G]
Response: no (0)

Prompt: Decide: is the reported value of abundance fitness for EQRVMALYDFQARSPREVTMKKGDVLTLLSSINKAWWKVEAADHQGIVPAVYVRRLAH [D35A] equal to or greater than -0.6?
Response: yes (1)

Prompt: Assess whether reported abundance fitness for EQRVMALYDFQARSPREVTMKKGDVLTLTSSINKDWWKVEAADHQGIVPAVYVRRLAH [L29T] sits at -0.6 or higher.
Response: yes (1)

Prompt: Form field: abundance fitness at least -0.6? Entry: EQRVMALYDFQARSPREVTMKKGDVRTLLSSINKDWWKVEAADHQGIVPAVYVRRLAH [L26R]
Response: no (0)

Prompt: Assess whether reported abundance fitness for EQRVMALYAFQARSPREVTMKKGDVLTLLSSINKDWWKVEAADHQGIVPAVYVRRLAH [D9A] sits at -0.6 or higher.
Response: yes (1)

Prompt: Test whether the variant EQRVMALYDFQARSPREVTMKKGDVLTLLSSINKDWWKVEAAPHQGIVPAVYVRRLAH [D43P] records abundance fitness of -0.6 or higher.
Response: yes (1)

Prompt: Has EQRVMALYDFQARSPREVTMKKGDVLTLLSSINKDWWKVEAADHTGIVPAVYVRRLAH [Q45T] a recorded abundance fitness greater than or equal to -0.6?
Response: yes (1)
